Source listed as ChEMBL document CHEMBL3507680.

experiment: Human HepG2 cell viability assay in 384 well format
Assay type: toxicity, cell-based
Set-up: dose 125 nL, time 70.5 hour; concentration not given beside the values
measurement_setup: HepG2 cells, read-out: Inhibition
measurement_type: cytotoxicity at 70.5 h (%)

| compound | test_result |
| --- | --- |
| Cc1cnc(C2(C)CCN(Cc3cscn3)CC2)s1 | -6.19 |
| CC(C)c1nn(C)c(N(C)C)c1CNCc1cccnc1 | -1.06 |
| O=C(N1CCCO1)[C@]12COC[C@H]1CN(Cc1cccnc1)C2 | -7.03 |
| CSc1cccc(CN2CCn3nc(CNC(C)=O)cc3C2)c1 | 5.2 |
| COc1cccc(Cn2ncnc2CCC(C)N2CCN(C)CC2)c1 (stereo unspecified) | -4.48 |
| c1ccc(CCc2noc(CN3CCC(N4CCSCC4)CC3)n2)cc1 | -2.58 |
| O=C(c1cscn1)N1C[C@H](OCc2cccnc2)[C@H]2COC[C@H]21 | -5.24 |
| CC(C)CN1C(=O)C2(CCN(Cc3ccoc3)C2)c2ccccc21 (stereo unspecified) | -14.2 |
| N#CC1(NC(=O)c2ccn(-c3ccccc3Cl)n2)CCSC1 (stereo unspecified) | -10.3 |
| CCc1ccc(OCC(O)CN2CCC(O)CC2)cc1 (stereo unspecified) | 24.8 |
| Cn1ncc2c(NCCCOc3cccnc3)nc(C3CCCC3)nc21 | 16.2 |

====

experiment: Human HepG2 cell viability assay in 384 well format
Assay type: toxicity, cell-based
Parameters: dose 125 nL, time 70.5 hour; concentration not given beside the values
measurement_setup: HepG2 cells, read-out: Inhibition
Item-by-item account of cytotoxicity at 70.5 h
measurement_type: cytotoxicity at 70.5 h (%)

| compound | test_result |
| --- | --- |
| c1cnn(CCNCc2csc(-c3ccc4c(c3)OCO4)n2)c1 | -1.83 |
| Cc1ccccc1CNC(=O)N1C[C@H]2C[C@H](C(=O)N3CCCC3)[C@@H](C1)O2 | -3.56 |
| Cc1cn[nH]c1C1COCCN1Cc1c[nH]cn1 (stereo not drawn) | 4.32 |
| OCCOCc1ncn2c1CN(Cc1cccs1)CCC2 | 0.851 |
| CCc1nc(C2CCCN2Cc2nc(C(C)(C)C)no2)no1 (stereo not drawn) | 2.43 |
| Cc1noc(C2CCN(C(=O)CCNc3ncccn3)CC2)n1 | -1.06 |
| COCC(=O)NCCn1ccc2c(OC)cccc21 | -6.28 |
| CC(NC(=O)N1CCN(c2ccccc2)CC1)c1nncn1C (stereo not drawn) | -15.6 |
| Cc1cc2nc(C(C)C)cc(N[C@H](C(N)=O)C(C)C)n2n1 | 32.4 |
| COc1cc(/C=C/c2ncc(C(=O)O)s2)cc(Cl)c1O | 7.03 |
| CCN1CCC2(CCC1=O)CN(c1cnc3ccccc3n1)CCN2C (stereo not drawn) | -2.99 |
| COCCn1cncc1Cn1ncc2ccccc2c1=O | -4.19 |
| CC(Cn1cccn1)NC(=O)NCc1cccnc1 (stereo not drawn) | -9.07 |
| O=C(CC1CCCC1)N1CCC(c2nnc(-c3ccccn3)o2)CC1 | 31.3 |
| Cc1cccc(N(CCC#N)S(=O)(=O)CC2CCCCO2)c1 (stereo not drawn) | 34.5 |
| CCC(=O)N1CCN(C(=O)CCn2cccn2)CC1 | -7.9 |
| Cc1ccnc(NC(=O)C2CCCO2)c1 (stereo not drawn) | 6.19 |
| CC(C)CC(C(=O)N(C)Cc1ncnn1C)N1CCCCC1=O (stereo not drawn) | -2.2 |
| CC(C)n1cnnc1CN(C)C(=O)c1cc(COc2ccccc2)[nH]n1 | 2.63 |
| COCCNC(=O)c1cc(-n2cccc2)ccc1Cl | -23.7 |
| CCC(C)N(Cc1cccnc1)Cc1ccccc1Cn1cccn1 (stereo not drawn) | -9.31 |
| CS(=O)(=O)c1cccc(C(N)c2ccccc2)c1 (stereo not drawn) | -1.27 |
| CC[C@H]1CN2CC[C@H]1C[C@@H]2CNC(=O)NC1CCCCC1 | 4.29 |
| O=C1CC2(CCCNC2)C(=O)N1Cc1cccc(F)c1 (stereo not drawn) | -8.03 |
| CCCn1cnc2c(cnn2-c2cccc(C)c2C)c1=O | 37.7 |
| O=C(COC(=O)Cc1cccs1)NCc1cccc(NC(=O)C2CC2)c1 | -10.5 |
| COCCNC(=O)N1CCN(c2cc(F)ccc2F)CC1 | -10.1 |
| Cn1cc(CN2CCS(=O)(=O)C(C)(C)C2)cn1 | -9.13 |
| CC(C)Cc1noc(COc2ccc(N(C)C(N)=O)cc2)n1 | -6.27 |
| CC(C)Oc1cccc(CNC(=O)N2CCC(N3CC=CC3)C2)c1 (stereo not drawn) | 26.6 |
| Cc1ncccc1NC(=O)[C@@H]1CC[C@@H]2[C@@H](CCN2Cc2cnn(C)c2)O1 | 13.5 |
| CCNc1cc2c(nn1)CCN(C(=O)c1ccc(NC3CC3)nc1)C2 | 1.85 |
| CCc1nc(C2CCCN(C(=O)c3cccc(C(N)=O)c3)C2)no1 (stereo not drawn) | 1.02 |
| O=C(Cc1csc(-c2nnc[nH]2)n1)N1CCCC1Cn1cccn1 (stereo not drawn) | -8.18 |
| CC(C)N1CC2(CCCN(c3ccccn3)C2)CCC1=O (stereo not drawn) | -6.62 |
| O=C(Cc1ccc2c(c1)CCO2)N1CCCCC1Cn1cccn1 (stereo not drawn) | -2.84 |
| c1csc(-c2nc(CN3CCOC(Cn4cncn4)C3)cs2)c1 (stereo not drawn) | -26.8 |
| N#Cc1ccc(C(=O)O)nc1/C=C/c1cccc(Cl)c1 | 7.88 |
| COc1ccc(CC2CN(Cc3cncn3C)CCO2)cc1 (stereo not drawn) | -9.57 |
| O=C1NC2(CCN(CCc3ccccc3)CC2)CC1c1ccccc1 (stereo not drawn) | -8.33 |
| Cn1cc(C#N)cc1C(=O)N1CCC2(CCCN(CC3CCC3)C2=O)C1 (stereo not drawn) | -4.46 |
| O=C1NC(c2ccccc2)=N[C@@]12CC[C@@H]1CN(Cc3ccoc3)C[C@@H]12 | -3.26 |
| CS(=O)(=O)c1ccc(NC(=O)NCc2ccc(F)cc2)cn1 | -0.885 |
| CN(C)c1cnn(CC(=O)N2CCN(c3ccccc3)CC2)c(=O)c1 | -5.83 |
| CC(CS(C)(=O)=O)N(C(=O)CCc1ccsc1)C1CC1 (stereo not drawn) | -4.58 |
| CCc1nc2n(n1)CC(NCC(=O)Nc1cc(C)on1)CC2 (stereo not drawn) | 12.5 |
| CC(C)(C)c1noc(CCC(=O)N2CCNC(=O)C2)n1 | 7.96 |
| CCN(C)S(=O)(=O)N1CCCC1CC(=O)c1cccs1 (stereo not drawn) | 32.3 |

====

Item-by-item account of cytotoxicity at 70.5 h
experiment: Human HepG2 cell viability assay in 384 well format
Assay type: toxicity, cell-based
Design: dose 125 nL, time 70.5 hour; concentration not given beside the values
measurement_setup: HepG2 cells, read-out: Inhibition

| molecule | cytotoxicity at 70.5 h [%] |
| --- | --- |
| COc1ccc(C[C@H]2CN(C3CCOCC3)CC[C@@H]2OCC2CC2)cc1 | -3.98 |
| Cc1cccc(CN2CCC3(CCCN(Cc4cnn(C)c4)C3)C2=O)n1 (stereo unspecified) | -18.3 |
| CCCC(=O)Nc1ccc(CC(=O)N(CC)CC2CCCCO2)cc1 (stereo unspecified) | 8.7 |
| O=C(c1ccccc1)N1CC[C@H]2C[C@H](c3nccs3)O[C@@H]2C1 | -11.2 |
| CN(C(=O)Cn1nnnc1C(C)(C)C)c1ccccc1 | -19.5 |
| C[C@@H]1C[C@@H]2CCN(C(=O)c3cnccn3)C[C@H]2O1 | -0.399 |
| Cc1nc(COC[C@@]23CCC[C@@H]2CN(Cc2nccs2)C3)cs1 | -7.37 |
| CCS(=O)(=O)CCNC1CCN(c2nc3ccc(Cl)cc3s2)CC1 | 4.49 |
| CCCN1CCN(C(=O)c2ccn(COc3ccc(F)cc3)n2)CC1 | -3.36 |
| COc1ccc(-c2nc(C(=O)NCC3CCOC3)cs2)cc1OC (stereo unspecified) | -7.66 |
| c1cnc2c(c1)CN(C1CCOC1)CCN2CC1CC1 (stereo unspecified) | -8.62 |

====

Item-by-item account of cytotoxicity at 70.5 h
experiment: Human HepG2 cell viability assay in 384 well format
Type: toxicity, cell-based
Parameters: dose 125 nL, time 70.5 hour; concentration not given beside the values
measurement_setup: HepG2 cells, read-out: Inhibition

| compound | uom | cytotoxicity at 70.5 h |
| --- | --- | --- |
| COc1ccc(N(C(=O)c2ccc(C)nc2)C(C)C)cc1F | % | 15.8 |
| COCCC(=O)N1CCC2(CCCN2Cc2ccccc2)C1 (configuration not stated) | % | -52.9 |
| CC(=O)N1CC2(CCCN2Cc2ccc(Cl)cc2)Cc2ccccc21 (configuration not stated) | % | 31.4 |
| CCOC(=O)CCNC(=O)N1CCCC(CNC(=O)c2ccco2)C1 (configuration not stated) | % | 3.18 |
| c1cnn(CC2CN(Cc3nc(-c4ccoc4)no3)CCO2)c1 (configuration not stated) | % | 24.3 |
| O=C(NCc1cc[nH]n1)N1CCC(Oc2ccccc2Cl)CC1 | % | 8.97 |
| CCSc1cc(C(=O)NC2CCN(C(=O)c3ccncc3)CC2)ccn1 | % | -0.0904 |
| CN(C)C(=O)C1CCCN1c1ccnc2ccsc12 (configuration not stated) | % | -7.45 |
| Cn1ccnc1CN1CCC(c2ccnc(-c3cccc(O)c3)c2)C1 (configuration not stated) | % | -1.18 |
| O=c1c(NCCc2ccc(O)cc2)c(NCc2ccccn2)c1=O | % | 6.43 |
| CS(=O)(=O)NCCNC(=O)NC1(c2ccc(F)cc2)CCCC1 | % | -9.82 |
| Cc1ncncc1C(=O)N1CCCN(Cc2nccn2C(C)C)CC1 | % | -8.96 |
